test: Pharmacokinetics in plasma and brain after single i.p. dose; conditions: female, C57-BL6, mouse, brain and plasma, ip, 10 mg/kg
quantity: Kp

compound_structure_string=C[C@@H]1OC2(CCN(Cc3ccc(F)cc3)CC2)CN(C)C1=O val=4.4

====

assay: in vivo; details: female, C57-BL6, mouse, ip, 10 mg/kg
quantity: AUC

compound_structure_string=CCN1CC2(CCN(Cc3ccc(C#N)c(F)c3)CC2)O[C@@H](C)C1=O quantity=AUC val="802 ng·h/mL"

====

So I've got pIC50 readings for Sig-2R (Homo sapiens, UniProt Q5BJF2), take a look.
pIC50: −log10 of the molar value.
quantity: pIC50

compound_structure_string=C[C@@H]1OC2(CCN(Cc3ccc(F)cc3)CC2)CN(C)C1=O quantity=pIC50 val="< 5.00"
compound_structure_string=CCN1CC2(CCN(Cc3ccc(C#N)c(F)c3)CC2)O[C@@H](C)C1=O quantity=pIC50 val="< 5.00"

====

experiment: in vivo; conditions: female, C57-BL6, mouse, ip, 10 mg/kg
quantity: Kp

compound="CCN1CC2(CCN(Cc3ccc(C#N)c(F)c3)CC2)O[C@@H](C)C1=O [Compound B]" quantity=Kp val=2.1

====

test: Pharmacokinetics in plasma and brain after single i.p. dose; conditions: female, C57-BL6, mouse, brain, ip, 10 mg/kg, t1/2 (terminal half-life), single i.p. 10 mg/kg, female mice
quantity: half-life

compound_structure_string=C[C@@H]1OC2(CCN(Cc3ccc(F)cc3)CC2)CN(C)C1=O val="> 5 h"

====

Assay: in vivo
Set-up: species or system male SOD1^G93A mice
Settings: male, SOD1^G93A, mouse, ip, 5 mg/kg
Protocol: Plasma levels were determined in the two in vivo models evaluated to be able to associate the pharmacological activity with the levels present in plasma. […] […] […] Results are expressed as mean±standard deviation (n=2-6).
quantity: concentration at 15 min

compound_structure_string=C[C@@H]1OC2(CCN(Cc3ccc(F)cc3)CC2)CN(C)C1=O val="~500 ng/mL"
compound_structure_string=CCN1CC2(CCN(Cc3ccc(C#N)c(F)c3)CC2)O[C@@H](C)C1=O val="~500 ng/mL"

====

test: in vivo; settings: female, C57-BL6, mouse, ip, 10 mg/kg, t1/2 (terminal half-life), brain
quantity: half-life (h)

compound_structure_string=CCN1CC2(CCN(Cc3ccc(C#N)c(F)c3)CC2)O[C@@H](C)C1=O val=3.4

====

assay: Pharmacokinetics in plasma and brain after single i.p. dose; settings: female, C57-BL6, mouse, plasma, ip, 10 mg/kg
quantity: Tmax (min)

compound_structure_string=C[C@@H]1OC2(CCN(Cc3ccc(F)cc3)CC2)CN(C)C1=O val=15

====

test: Pharmacokinetics in plasma and brain after single i.p. dose; conditions: female, C57-BL6, mouse, brain, ip, 10 mg/kg
quantity: Tmax

compound_structure_string=C[C@@H]1OC2(CCN(Cc3ccc(F)cc3)CC2)CN(C)C1=O quantity=Tmax val="15 min"

====

assay: Pharmacokinetics in plasma and brain after single i.p. dose; conditions: female, C57-BL6, mouse, plasma, ip, 10 mg/kg, t1/2 (terminal half-life), single i.p. 10 mg/kg, female mice
quantity: half-life

compound="C[C@@H]1OC2(CCN(Cc3ccc(F)cc3)CC2)CN(C)C1=O [Compound A]" val="> 5 h"

# credit: patent US20250002503A1
